Quantity measured: logP

compound=CC(=O)OCCCNc1ccc(-c2ccncc2)cn1 observed_result=2.42
compound=CC(=O)N1CCN(c2ccc(-c3ccccc3)c(C)n2)CC1 observed_result=4.08
compound="CC(=O)COC(C)CNc1ccc(-c2ccccc2)c(C)n1 (stereo not given)" observed_result=3.74

(A) O=C(OCCNc1ccc(-c2ccncc2)cn1)c1cccnc1
(B) CC(=O)OCCOc1ccc(-c2ccccc2)c(C)n1
*Q* Smaller logP value? Options are A and B Let me know the label of the one you choose.
*A* A

* * *

Quantity measured: logP

molecule="CC(=O)OCC(COc1ncc(-c2ccncc2)cc1C#N)OC(C)=O (stereo not given)" observed_result=2.51
molecule=CCC(=O)OCCCNc1ccc(-c2ccncc2)cn1 observed_result=2.87

(1) CC(=O)N1CCN(c2ccc(-c3ccncc3)cn2)CC1
(2) CCC(=O)OCCOc1ccc(-c2ccncc2)c(C)n1
*Q* # returns the entry with the larger logP; inputs 1 and 2 Let me know the label of the one you choose.
*A* 2

(A) CC(=O)OCCCOc1ccc(-c2ccncc2)cn1
(B) O=C(OCCCNc1ccc(-c2ccncc2)cn1)c1ccccc1
*Q* # returns the entry with the larger logP; inputs A and B Let me know the label of the one you choose.
*A* B

(P) CCC(=O)OCCNc1ccc(-c2ccncc2)cn1
(Q) O=C(OCCNc1ccc(-c2ccncc2)cn1)c1ccccc1
*Q* # returns the entry with the larger logP; inputs P and Q Let me know the label of the one you choose.
*A* Q
(Q: 3.84, P: 2.47)

(a) CC(=O)OCCOc1ccc(-c2ccncc2)cn1
(b) CC(=O)OCCCNc1ccc(-c2ccncc2)c(C)n1
*Q* Smaller logP value? Options are a and b Let me know the label of the one you choose.
*A* a
(a: 1.92, b: 2.91)
